Data origin: PubChem BioAssay AID624202

- protocol_description: qHTS Assay to Identify Small Molecule Activators of BRCA1 Expression; note: nearly all actives have a fitted effect of over 80% in size
- experimental_setup: MCF7-BRCA1-FFLuc reporter, luminescence, 48 h; series mostly up to 46.1 µM
In all, about 380,000 compounds went through this assay and about 4,000 (1.1%) were called active. Inconclusive results (about 3%) are left out. Calls come from the whole dose curve; as a rule, active = well fitted activation curve with a large enough effect; inconclusive = small, poorly fitted or top-dose-only effect; inactive = no such curve, though single readings can be large or run the other way. The list comes from a sample in which actives are over-represented; it also holds close analogues and randomly drawn compounds.
Pick one: yes (active), no (inactive)

Consider the following illustrative entries.
>>> print(df.to_string())
                                   compound  class
0  CCc1ccccc1NC(=O)Cn1c(=O)n(CC2CCC(C(=O)NCCc3ccccc3)CC2)c(=O)c2ccccc21 (stereo unspecified)     no
1  COc1ccccc1-c1sc2ccccc2c1-c1ccc(C(C)=O)cc1     no
2           CC1(C)CC(=O)C=C(c2ccccc2CO)C1=O     no
3  O=c1cc(COc2cccc(C(F)(F)F)c2)nc2sc3c(n12)CCCC3     no
4  CNCCCOc1cc2nc(N3CCCN(C)CC3)nc(NC3CCN(C)CC3)c2cc1OC     no
5  CN(c1ccccc1)S(=O)(=O)c1ccc(C(=O)NCCc2ccccc2)cc1     no

Hey, what did the test say about Cc1ccc(-c2ccc(C3=CC(=O)CC(C)(C)C3=O)cc2)cc1 ? yes

// repeat for CN(C)c1ccc(C=Nc2ccc(/C=C/c3ccnc4ccccc34)cc2)cc1 and report no

// repeat for Cc1ccc2[nH]cc(CCCN3C(=O)c4ccccc4C3=O)c2c1 and report no

// repeat for O=C(Cn1c(=O)n(Cc2ccccc2)c(=O)c2sc3ccccc3c21)Nc1ccccc1F and report no

###

- protocol_description: qHTS Assay to Identify Small Molecule Activators of BRCA1 Expression; note: nearly all actives have a fitted effect of over 80% in size
- experimental_setup: MCF7-BRCA1-FFLuc reporter, luminescence, 48 h; series mostly up to 46.1 µM
The campaign covered roughly 380,000 compounds. About 4,000 (1.1%) were called active. Another 3% or so got no clear call; they are omitted. The call rests on the fitted dose curve; in most records, active means well fitted activation curve with a large enough effect; inconclusive means small, poorly fitted or top-dose-only effect; inactive means no such curve, though single readings can be large or run the other way. Shown is part of a subset that was picked to be rich in actives.
Pick one: T for active, F for inactive

Consider the following illustrative entries.
                                   compound  class
0    Cc1ccc(NC(=O)N2CCC(O)(c3cccnc3)CC2)cc1      F
1       Cc1ccc(-c2nnc3ccc(SCC(N)=O)nn23)cc1      F
2    O=C(Nc1ccc(Cl)cc1)Nc1ccc(Oc2cccnc2)nc1      F
3  Cc1cc(NC(=O)Nc2c[nH]c(=O)[nH]c2=O)ccc1Br      F
4  Cc1ccccc1-n1c(C)cc(/C=N/NC(=O)c2ccc(CN3CCOCC3)cc2)c1C      F

Hey, what did the test say about CC(=O)c1cccc(NC(=O)Nc2ccc(C)cc2)c1 ? T

// repeat for CCOc1cc(NC(=O)Nc2ccccc2)c(OCC)cc1NC(=O)CC and report F

// repeat for Cc1cc2c(cc1S(=O)(=O)CCC(=O)Nc1ccc(OC(F)(F)F)cc1)OCC(=O)N2 and report F

// repeat for CCOc1ccc(N2CC(C(=O)NCc3ccccn3)CC2=O)cc1 (stereo unspecified) and report F

// repeat for CSc1ccc(/C=C2\NC(=O)NC2=O)cc1 and report F

// repeat for Cc1ccccc1-n1c(C)cc(/C=C2\NC(=O)NC2=O)c1C and report T

###

- protocol_description: qHTS Assay to Identify Small Molecule Activators of BRCA1 Expression; note: nearly all actives have a fitted effect of over 80% in size; note: potency is the fitted concentration of half-maximal effect
- experimental_setup: MCF7-BRCA1-FFLuc reporter, luminescence, 48 h; series mostly up to 46.1 µM
Among all 380,000 compounds or so, about 4,000 (1.1%) were called active. Not shown: some 3% with an inconclusive outcome. The sample holds actives, similar compounds and a random draw of the others, so the mix is not that of the screen.
endpoint: Potency

Solved entries:
In [3]: df
Out[3]:
                                   compound  endpoint       val
0  COc1ccc(-c2noc(CSc3nc4ccc(C)cc4[nH]3)n2)cc1   Potency  inactive
1  CSc1ccc(CNC(=O)c2ccc(NC(=O)C3=CSCCO3)cc2)cc1   Potency  inactive
2   COc1cc(OC)c(/C=C/c2ccnc3ccccc23)c(OC)c1   Potency  inactive
3  COc1cc(OC)c(C2C=C(C(=O)O)Nc3ncnn32)cc1OC (centres undefined)   Potency  inactive
4  COc1ccc(-n2ccnc(NCCc3ccc(Cl)cc3)c2=O)cc1OC   Potency  inactive

For the compound shown here, O=C(CSc1nnc(SCc2ccc(Cl)cc2)s1)N/N=C/c1ccccc1Cl , give the reported Potency. inactive

// repeat for CCN(CC)C(=O)CSc1nnc(-c2cccc(OC)c2)o1 and report 11.2 µM (active)

###

- protocol_description: qHTS Assay to Identify Small Molecule Activators of BRCA1 Expression; note: nearly all actives have a fitted effect of over 80% in size
- experimental_setup: MCF7-BRCA1-FFLuc reporter, luminescence, 48 h; series mostly up to 46.1 µM
- Source text: Functionally, BRCA1 has been implicated in a wide array of cellular activities, including DNA damage repair, cell-cycle checkpoint control, growth inhibition, apoptosis, transcriptional regulation, chromatin remodeling, protein ubiquitylation, and mammary stem cell self-renewal and differentiation. […]
Among all 380,000 compounds or so, about 4,000 (1.1%) were called active. Not shown: some 3% with an inconclusive outcome. The call rests on the fitted dose curve; in most records, active means well fitted activation curve with a large enough effect; inconclusive means small, poorly fitted or top-dose-only effect; inactive means no such curve, though single readings can be large or run the other way. For the sample, actives were picked, then their nearest neighbours and some compounds at random.
Pick one: active, inactive

Consider the following illustrative entries.
>>> print(df.to_string())
                                   compound     class
0  CCOc1ccc(NC(=O)c2ccc(NC(=O)CN3C(=O)C(=O)N(CC(C)C)C3=O)cc2)cc1  inactive
1  CCC1=Nc2cc(C(=O)NCC(C)c3ccccc3)ccc2Sc2ccc(C)cc21 (stereo unspecified)  inactive
2     CC(=O)c1cc(C#N)c(SCC(=O)Nc2nccs2)nc1C    active
3      Cc1cc(C(F)(F)F)nc(SCC(=O)Nc2nccs2)n1  inactive
4           Cc1cc(C)cc(NC(=O)NC2CCCCCCC2)c1  inactive
5  CCCCOc1ccc(C(=O)Nc2cccc(-c3nc4ccccc4o3)c2C)cc1  inactive

Hey, what did the test say about CC(C)(C)c1ccc(OC2=CS(=O)(=O)c3ccccc32)cc1 ? active

// repeat for Fc1ccc(COc2cccc(-c3n[nH]c(=S)o3)c2)cc1 and report inactive

// repeat for Cc1[nH]c2ccccc2c1SCC(=O)Nc1nccs1 and report inactive

// repeat for O=C(Nc1cccc(F)c1)[C@@H]1CCCN1 and report inactive

// repeat for O=C(Nc1ccc(Br)cc1)c1ccc(Br)c(S(=O)(=O)NCc2ccccc2)c1 and report inactive

###

- protocol_description: qHTS Assay to Identify Small Molecule Activators of BRCA1 Expression; note: nearly all actives have a fitted effect of over 80% in size; note: potency is the fitted concentration of half-maximal effect
- experimental_setup: MCF7-BRCA1-FFLuc reporter, luminescence, 48 h; series mostly up to 46.1 µM
The whole screen tested about 380,000 compounds, of which about 4,000 (1.1%) were called active. Another 3% or so got no clear call; they are omitted. The sample holds actives, similar compounds and a random draw of the others, so the mix is not that of the screen.
endpoint: Potency

Solved entries:
                                   compound               val
0  CCOC(=O)Cn1c(=O)n(-c2ccccc2OC)c2nc(-c3cccc(F)c3)nc(C(N)=O)c21          inactive
1   CCS(=O)(=O)n1nc(-c2ccccc2)nc1SCc1ccccc1  3.98 µM (active)
2  COc1cccc(CNCc2c(C(=O)O)n(Cc3ccc(C)cc3)c3cc(C)ccc23)c1OC          inactive
3           O=C(NC1CCCC1)c1cc(-c2ccccc2)on1          inactive
4  COc1cccc(CNC(=O)c2cc(=O)[nH]c3ccc(S(=O)(=O)N4CCCCC4)cc23)c1          inactive

For the compound shown here, CCN(CCCNC(=O)c1c(C)oc2ncn(CC(C)C)c(=O)c12)Cc1ccccc1 , give the reported Potency. inactive

// repeat for COc1ccc(CCn2cc3c(c2-c2ccc(Br)cc2)c(=O)n(C)c(=O)n3C)cc1OC and report inactive

// repeat for CN(C)S(=O)(=O)c1cc(C(=O)Nc2ccn(C)n2)c(Cl)cc1Cl and report inactive

// repeat for Cn1cc(S(=O)(=O)N2CCCCCC2)cc1C(=O)N1CCN(c2ccc(F)cc2)CC1 and report inactive

// repeat for CCOC(=O)N1CCN(S(=O)(=O)c2ccc(C(=O)Nc3ccc(F)cc3F)cc2)CC1 and report inactive

###

- protocol_description: qHTS Assay to Identify Small Molecule Activators of BRCA1 Expression; note: nearly all actives have a fitted effect of over 80% in size
- experimental_setup: MCF7-BRCA1-FFLuc reporter, luminescence, 48 h; series mostly up to 46.1 µM
The campaign covered roughly 380,000 compounds. About 4,000 (1.1%) were called active. Not shown: some 3% with an inconclusive outcome. The call rests on the fitted dose curve; in most records, active means well fitted activation curve with a large enough effect; inconclusive means small, poorly fitted or top-dose-only effect; inactive means no such curve, though single readings can be large or run the other way. What follows is part of a selection rich in actives, with near analogues and random picks from the rest.
Pick one: active, inactive

Consider the following illustrative entries.
In [3]: df
Out[3]:
                                   molecule     class
0  CCOc1cc(C2c3c(-c4ccc(Br)cc4)n[nH]c3C(=O)N2c2ccc(Cl)cc2)ccc1O (stereo not given)  inactive
1  Cc1cccc(NC(=O)CSc2nc3c(oc4ccccc43)c(=O)n2-c2ccc(F)cc2)c1  inactive
2   CCCCCn1c(CCCNC(=O)c2ccccc2OC)nc2ccccc21  inactive
3                    CCCCOc1ccc(C(=O)NO)cc1  inactive
4  Cc1ccnc(NC(=O)c2ccc(NC(=O)c3ccco3)cc2)c1    active
5  CC(C)c1ccc2oc(-c3cc(NC(=O)c4cccs4)ccc3Cl)nc2c1  inactive

Hey, what did the test say about COc1ccc(OCc2cc(C(=O)N3CCCC3)no2)c2ccccc12 ? inactive

// repeat for CCOC(=O)CNc1nc(Cl)nc(Nc2ccccc2)n1 and report active
